// reported normalised viability for each item listed
Test system: MDA-MB-453
run_description: normalised viability (% of control), CellTiter-Blue; higher = more viable cells (about 100 = DMSO control)
condition: incubation time: 72 h
Give the quantity in %, number only.

C[C@]12C=CC(=O)C=C1CC[C@@H]1[C@@H]2C(=O)C[C@@]2(C)[C@H]1CC[C@]2(O)C(=O)CO [Prednisone] (3000 nM)	93.5

Suppose we examine the molecule Nc1nc(Cl)nc2c1ncn2[C@@H]1O[C@H](CO)[C@@H](O)[C@@H]1F [Clofarabine] (3000 nM) ; what normalised viability value has been reported? 44.4

Similarly, CCN(CC)CCOc1ccc(C(=C(Cl)c2ccccc2)c2ccccc2)cc1 [Clomifene] (3000 nM) ? 82.8

Similarly, O=NN(CCCl)C(=O)NC1CCCCC1 [Lomustine] (3000 nM) ? 112

---

// reported normalised response for each item listed
Test system: Hs578T
run_description: normalised response (% of control), CellTiter-Glo; higher = more viable cells (100 = DMSO, 0 = benzethonium chloride kill control)
condition: incubation time: 72 h
Give the quantity in %, number only.

C[C@@H](C(=O)O)c1ccc(-c2ccccc2)c(F)c1 [Tarenflurbil] (10000 nM)	97.5

Suppose we examine the compound NC(=O)NO [Hydroxyurea] (100000 nM) ; what normalised response value has been reported? 104

Similarly, Cc1c(N)nc([C@H](CC(N)=O)NC[C@H](N)C(N)=O)nc1C(=O)N[C@H](C(=O)N[C@H](C)[C@@H](O)[C@H](C)C(=O)N[C@H](C(=O)NCCc1nc(-c2nc(C(=O)NCCC[S+](C)C)cs2)cs1)[C@@H](C)O)[C@@H](OC1OC(CO)C(O)C(O)C1OC1OC(CO)C(O)C(OC(N)=O)C1O)c1cnc[nH]1 (stereo partly drawn) [Bleomycin] (10000 nM) ? 69.6

---

System: CAL-148
run_description: drug sensitivity score (DSS), CellTox Green (DSS (AUC-based score)); higher = stronger drug effect (viability inhibition or cytotoxicity); extreme values may be limits of the assay
condition: incubation time: 72 h
property_measured: drug sensitivity score
# answer = number (no unit)

Cc1cc2c(F)c(Oc3ncnn4cc(OC[C@@H](C)O)c(C)c34)ccc2[nH]1	0
CCc1cnn2c(NCc3ccc[n+]([O-])c3)cc(N3CCCC[C@H]3CCO)nc12	9.14
C[C@@H]1C[C@H]2[C@@H]3CCC4=CC(=O)C=C[C@]4(C)[C@@]3(F)[C@@H](O)C[C@]2(C)[C@@]1(O)C(=O)CO	0

Consider the record given below.
Suppose we examine the compound CCc1c(C(=O)C(N)=O)c2c(OCC(=O)O)cccc2n1Cc1ccccc1 ; what drug sensitivity score value has been reported? 0

---

Tested on: DU-4475
run_description: normalised viability (% of control), CellTiter-Blue; higher = more viable cells (about 100 = DMSO control)
condition: incubation time: 72 h
property_measured: normalised viability (%)
Give the quantity in %, number only.

O=C(c1cc(Cc2n[nH]c(=O)c3ccccc23)ccc1F)N1CCN(C(=O)C2CC2)CC1 [Olaparib] (10000 nM)	71.7

Suppose we examine the compound N[C@@H](Cc1ccc(N(CCCl)CCCl)cc1)C(=O)O [Melphalan] (990 nM) ; what normalised viability value has been reported? 62.4

Similarly, Cc1c(C(=O)Nc2ccc(N3C[C@@H](C)O[C@@H](C)C3)nc2)cccc1-c1ccc(OC(F)(F)F)cc1 [NVP-LDE225] (10000 nM) ? 110

Similarly, COc1cc2c(Oc3ccc(NC(=O)C4(C(=O)Nc5ccc(F)cc5)CC4)cc3F)ccnc2cc1OCCCN1CCOCC1 [Foretinib] (1000 nM) ? 29.4

Similarly, O=C(O)CC[C@H]1CC[C@@](c2cc(F)ccc2F)(S(=O)(=O)c2ccc(Cl)cc2)CC1 [MK-0752] (1000 nM) ? 110

Similarly, NC(=O)NO [Hydroxyurea] (100000 nM) ? 121
